Kindly state IC50 for each of the entries shown.
System: MDA-MB-231
Method: cells
Condition: Homo sapiens, MDA-MB-231, 96 h
Description: Growth inhibition of human MDA-MB-231 cells after 4 days by WST-8 assay
Express your answer as a number followed by its unit.

query: Reported IC50 for MDA-MB-231, given CN[C@@H](C)C(=O)N[C@H]1CCCC[C@H]2CC[C@@H](C(=O)NC(c3ccccc3)c3ccccc3)N2C1=O ?
result: 259 nM

query: Queued: CN[C@@H](C)C(=O)N[C@H]1C/C=C\C[C@H]2[C@@H](Cc3ccccc3)C[C@@H](C(=O)N[C@@H]3CCCc4ccccc43)N2C1=O
result: 26 nM
